Entries and their pEC50
assay-target: DNA
experiment-notes: Inhibition of calf thymus DNA/ethidium bromide complex formation.
pEC50: −log10 of the molar value.

Sample answers from the record:
1. CC(=O)N[C@H]1CC[C@H](n2nc3c4cc(F)c(-c5cc(C)nc(C)c5)c(F)c4n(C4CC4)cc-3c2=O)CC1 :: < 4.29
2. CC(=O)N[C@H]1CC[C@@H](n2nc3c4cc(F)c(-c5cc(C)nc(C)c5)c(F)c4n(C4CC4)cc-3c2=O)CC1 :: < 4.28
3. Cc1cc(-c2c(F)cc3c4nn(C5CCC(C)CC5)c(=O)c-4cn(C4CC4)c3c2F)cc(C)n1 (stereo unspecified) :: < 4.30
4. Cc1cc(-c2c(F)cc3c4nn([C@H]5CC[C@@H](N(C)C)CC5)c(=O)c-4cn(C4CC4)c3c2F)cc(C)n1 :: < 4.30
5. Cc1cc(-c2c(F)cc3c4nn([C@H]5CC[C@@H](N)CC5)c(=O)c-4cn(C4CC4)c3c2F)cc(C)n1 :: < 4.30
6. Cc1cc(-c2c(F)cc3c(=O)ccn(C4CC4)c3c2F)cc(C)n1 :: < 4.26
7. Cc1cc(-c2c(F)cc3c4nn(CCCN(C)C)c(=O)c-4cn(C4CC4)c3c2F)cc(C)n1 :: < 4.30
8. Cc1cc(-c2c(F)cc3c4nn(-c5ccccc5)c(=O)c-4cn(C4CC4)c3c2F)cc(C)n1 :: < 4.22

// query Please list pEC50 recorded for the molecule Cc1cc(-c2c(F)cc3c4nn(CCNCCO)c(=O)c-4cn(C4CC4)c3c2F)cc(C)n1
// result 5.92

// query Give reported pEC50 value for Cc1cc(-c2c(F)cc3c4nn(C5CCCCC5)c(=O)c-4cn(C4CC4)c3c2F)cc(C)n1
// result < 4.30

// query Please indicate pEC50 recorded for Cc1cc(-c2c(F)cc3c4nn([C@H]5CC[C@H](N)CC5)c(=O)c-4cn(C4CC4)c3c2F)cc(C)n1
// result < 4.30

// query Output pEC50 of Cc1cc(-c2c(F)cc3c(=O)c(C(=O)O)cn(C4CC4)c3c2F)cc(C)n1 [WIN-57294]
// result < 4.27

// query Name the recorded pEC50 of the item Cc1cc(-c2c(F)cc3c4nn(CCN(C)C)c(=O)c-4cn(C4CC4)c3c2F)cc(C)n1 in your answer.
// result 6.03

// query Given Cc1cc(-c2c(F)cc3c4nn(CC(=O)O)c(=O)c-4cn(C4CC4)c3c2F)cc(C)n1 , respond with its pEC50.
// result < 4.22

// query Read the entry CCOC(=O)Cn1nc2c3cc(F)c(-c4cc(C)nc(C)c4)c(F)c3n(C3CC3)cc-2c1=O and write its reported pEC50.
// result < 4.22
